Please respond with reported inhibition for every item in the list.
# System: Plasmodium falciparum
# protocol.text: GSK_TCMDC: Inhibition of Plasmodium falciparum 3D7 LDH activity, using an LDH reporter assay. Test compounds present at 2uM
# Type: functional, organism-based
Screen size: about 13,000 compounds; fewer than 10 showed an effect of 50% or more. Only a sample is shown.
Just the number please, in %, no unit attached.

QUERY: Give the reported inhibition for O=C(Nc1ccc2c(c1)CCC2)N[C@H]1CCN(Cc2ccc(OCCCN3CCCCC3)cc2)C1 (system: Plasmodium falciparum).
RESULT: 0

QUERY: Give the reported inhibition for Clc1ccccc1C=NN=c1cc[nH]c2ccccc12 (system: Plasmodium falciparum).
RESULT: 0

QUERY: Give the reported inhibition for COC(=O)c1cccc(CNCc2cccc(-c3cccc(-c4nc5cc(C(F)(F)F)ccc5[nH]4)c3)c2)c1 (system: Plasmodium falciparum).
RESULT: 6

QUERY: Give the reported inhibition for CNCCNCc1ccc(-c2ccc(-c3nc4cc(F)ccc4[nH]3)cc2)cc1 (system: Plasmodium falciparum).
RESULT: 4

QUERY: Give the reported inhibition for COc1cccc(CCc2nc3c(N4CCC(Cc5ccccc5)CC4)cccc3n2CC2CNCCO2)c1 (centres undefined) (system: Plasmodium falciparum).
RESULT: 4

QUERY: Give the reported inhibition for CCN(CC)CCN(CCN(CC)CC)c1ccc(-c2nc3cc(Cl)c(Cl)cc3[nH]2)cc1 (system: Plasmodium falciparum).
RESULT: 2

QUERY: Give the reported inhibition for CCN(CC)CCN(Cc1ccc(-c2ccc(C(F)(F)F)cc2)cc1)C(=O)Cn1c(CCc2ccc(F)cc2)nc(=O)c2ccccc21 (system: Plasmodium falciparum).
RESULT: 0

QUERY: Give the reported inhibition for CCN1CCC(N(Cc2ccc(-c3ccc(C(F)(F)F)s3)cc2)C(=O)Cn2c(CCc3cccc(F)c3F)nc(=O)c3ccccc32)CC1 (system: Plasmodium falciparum).
RESULT: 7

QUERY: Give the reported inhibition for CCOc1ccc2[nH]c(C)cc(=NN=Cc3cccc(F)c3)c2c1 (system: Plasmodium falciparum).
RESULT: 0

QUERY: Give the reported inhibition for CCOc1ccc2nc3cc(NC(=O)c4ccco4)ccc3c(N)c2c1 (system: Plasmodium falciparum).
RESULT: 0

QUERY: Give the reported inhibition for O=C1C(=Cc2c(O)ccc3ccccc23)SC(=NCc2ccccc2)N1Cc1ccccc1 (system: Plasmodium falciparum).
RESULT: 0

QUERY: Give the reported inhibition for COc1ccc(C=NN=c2cc(C)[nH]c3ccccc23)cc1OC (system: Plasmodium falciparum).
RESULT: 0

QUERY: Give the reported inhibition for COc1ccc(C2CCC(NCCCCNC(=O)c3ccc(NC(=O)c4ccc(Cl)cc4)cc3)CC2)cc1 (centres undefined) (system: Plasmodium falciparum).
RESULT: 0

QUERY: Give the reported inhibition for CN(CCN)Cc1cccc(-c2cccc(-c3nc4cc(C(F)(F)F)ccc4[nH]3)c2)c1 (system: Plasmodium falciparum).
RESULT: 0

QUERY: Give the reported inhibition for CS(=O)(=O)c1ccc(CNCc2ccc(-c3cccc(-c4nc5cc(C(F)(F)F)ccc5[nH]4)c3)cc2)cc1 (system: Plasmodium falciparum).
RESULT: 8

QUERY: Give the reported inhibition for COc1c(Br)cc(Br)cc1-c1ccc(CN2CC3CCC2CC3)[nH]1 (system: Plasmodium falciparum).
RESULT: 0

QUERY: Give the reported inhibition for Cn1cccc1C(=O)C(=O)Nc1ccc(-c2ccc(-c3nc4cc(F)ccc4[nH]3)cc2)cc1 (system: Plasmodium falciparum).
RESULT: 0

QUERY: Give the reported inhibition for CS(=O)(=O)c1cc2c(Nc3ccc(N4CCOCC4)cc3)c(C(N)=O)cnc2cc1Br (system: Plasmodium falciparum).
RESULT: 0

QUERY: Give the reported inhibition for Cc1cc(=NN=Cc2ccc(F)cc2)c2ccc(C(F)(F)F)cc2[nH]1 (system: Plasmodium falciparum).
RESULT: 0
